- test_target: human MC3R (human, UniProt P41968 1-323)
- Sequence (P41968 whole entry): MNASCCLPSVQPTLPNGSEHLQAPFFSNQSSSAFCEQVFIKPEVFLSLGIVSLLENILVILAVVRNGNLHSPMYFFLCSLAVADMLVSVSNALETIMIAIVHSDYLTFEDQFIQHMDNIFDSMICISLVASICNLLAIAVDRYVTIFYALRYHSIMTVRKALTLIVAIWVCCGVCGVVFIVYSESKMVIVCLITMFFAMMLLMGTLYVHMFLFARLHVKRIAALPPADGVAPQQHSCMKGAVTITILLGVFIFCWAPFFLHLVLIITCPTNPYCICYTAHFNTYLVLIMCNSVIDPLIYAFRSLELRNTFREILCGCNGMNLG
- protocol_text: cell-based or functional assay
Positions of bridges follow the written chain, without caps; N, C: chain ends. Non-standard residues stand in square brackets, D forms with d. Nle = CCCC[C@H](N)C(=O)O; Orn = NCCC[C@H](N)C(=O)O
Would you kindly list cAMP EC50 for each of these binders?
State the result as a value with its unit after it.

Task: Please report the measured cAMP EC50 for Ac-CGH[dF]RWC-NH2 (disulfide 1-7; SMILES CC(=O)N[C@H]1CSSC[C@@H](C(N)=O)NC(=O)[C@H](Cc2c[nH]c3ccccc23)NC(=O)[C@H](CCCNC(=N)N)NC(=O)[C@@H](Cc2ccccc2)NC(=O)[C@H](Cc2c[nH]cn2)NC(=O)CNC1=O) [CTX-1206]
Output: 12 nM

Task: Provide measured cAMP EC50 value, entry: Ac-R[Nle]C[Orn][dF]RWC-NH2 (disulfide 3-8; SMILES CCCC[C@H](NC(=O)[C@H](CCCNC(=N)N)NC(C)=O)C(=O)N[C@H]1CSSC[C@@H](C(N)=O)NC(=O)[C@H](Cc2c[nH]c3ccccc23)NC(=O)[C@H](CCCNC(=N)N)NC(=O)[C@@H](Cc2ccccc2)NC(=O)[C@H](CCCN)NC1=O) [CTX-1617]
Output: 2.3 nM
